Test system: NCI-H23
Test Name: NCI tumour cell line growth inhibition, 48 h
Calls of active or inactive are those of the source. No stated cut-off is given here; in the data, active = GI50 up to about 1.1 µM and inactive = higher.
Quantity Measured: GI50

Look up GI50 for this molecule: CC1CC(=O)Nc2cc(Cl)ccc2N1C(=O)C1CC1 (centres undefined)
> 100 µM (inactive)

Look up GI50 for this molecule: CC(C)(C)c1ccc(C(O)c2ccc(C(C)(C)C)cc2)cc1
12.1 µM (inactive)

Look up GI50 for this molecule: O=C(NC1=C(Cl)C(=O)c2ccccc2C1=O)c1ccccc1
23.8 µM (inactive)

Look up GI50 for this molecule: C[C@@]1(Cc2ccccc2)C(=O)N2[C@@H](CO)C(c3ccccc3)O[C@]2(C)c2ccccc21 (some centres undefined)
> 100 µM (inactive)

Look up GI50 for this molecule: CCCCCCCCCCCCCCCCCC(=O)NCC(COP(=O)([O-])OCC[N+](C)(C)C)OCC (centres undefined)
19.7 µM (inactive)

Look up GI50 for this molecule: COc1ccc(C2S/C(=C\c3ccccc3O)C(=O)N2NC(=O)Cc2ccccc2)cc1 (centres undefined)
> 100 µM (inactive)

Look up GI50 for this molecule: COC(=O)/C(=N/Nc1cccc(Cl)c1)C(C(=O)C(=O)Nc1cccc(Cl)c1C)c1nc2ccccc2nc1C (centres undefined)
> 100 µM (inactive)

Look up GI50 for this molecule: COc1ccc(/C=N/NC(=O)CSc2nc(-c3ccccc3)c(-c3ccccc3)[nH]2)cc1OC
30.3 µM (inactive)

Look up GI50 for this molecule: Cc1ccc(-c2cc(-c3ccc(Cl)cc3)nc(/N=C3\C(=O)N(CN4CCOCC4)c4ccc(Cl)cc43)n2)cc1
19.6 µM (inactive)

----------
Field: GI50. Provide a value for each of the compounds that follow.
Tested on: A498
Test Name: NCI tumour cell line growth inhibition, 48 h
Calls of active or inactive are those of the source. No stated cut-off is given here; in the data, active = GI50 up to about 1.1 µM and inactive = higher.

Look up GI50 for this compound: CCN1CCC(O)(/C=C/c2ccc(C)cc2C)C(C(=O)/C=C/c2ccc(C)cc2C)C1 (stereo not given)
9.59 µM (inactive)

Look up GI50 for this compound: CC1CC(=O)Nc2cc(Cl)ccc2N1C(=O)C1CC1 (stereo not given)
> 100 µM (inactive)

Look up GI50 for this compound: CN1CCN(C2=C(Cl)C3(OCCS3)C(F)(F)C2(F)F)CC1 (stereo not given)
> 100 µM (inactive)

Look up GI50 for this compound: CNc1nc(C(N)=O)c(N)s1
> 100 µM (inactive)

Look up GI50 for this compound: O=C1C(=O)N(c2ccc(Cl)cc2)C(=O)/C(=N/c2cccc3c(=O)[nH][nH]c(=O)c23)C1c1nc2ccccc2o1 (stereo not given)
> 100 µM (inactive)

----------
System: NCI-H522
Test Name: NCI tumour cell line growth inhibition, 48 h
Active and inactive are the calls of the source. Cut-off read from the data, not from the text of the source: active = GI50 up to about 1.1 µM and inactive = higher.
A correct response names exactly one class from 1 for active, 0 for inactive

Fill in: this test's call for CC(C)(C)c1ccc(C(O)c2ccc(C(C)(C)C)cc2)cc1 is ___
0

Fill in: this test's call for NC(=O)c1ccccc1NC(=O)C(=O)C(c1cnc2ccc([N+](=O)[O-])cc2n1)[N+](=O)[O-] (configuration not stated) is ___
0

Fill in: this test's call for O=C(Nc1ccc2[nH]c(C(=O)N3CC(CCl)c4ccc([N+](=O)[O-])cc43)cc2c1)c1cc2ccccc2o1 (configuration not stated) is ___
0

Fill in: this test's call for Cc1cc(-c2nc3ccccc3s2)ccc1NC(=O)[C@@H](N)CCCCN is ___
0

Fill in: this test's call for CCCCCCCC(=O)OCC1OC(n2cc(F)c(=O)[nH]c2=O)C(NC(=O)OCc2ccccc2)C(OC(=O)CCCCCCC)C1O (configuration not stated) is ___
0

Fill in: this test's call for CC(=O)[C@@]1(c2ccccc2)CC2(CCN(C)CC2)O[C@H]1C is ___
0

Fill in: this test's call for C/C(CC/C(C)=N/O)=N\O is ___
0

Fill in: this test's call for COc1ccc([C@@]23CCC(=O)C[C@@H]2N(C)CC3)cc1OC is ___
0

Fill in: this test's call for C[C@@H](C[C@H]1OC(C)(C)O[C@@H]1C(C)(C)O)[C@H]1CC=C2[C@]3(C)[C@H](O)C[C@H]4C(C)(C)[C@H](O)CC[C@]4(C)[C@H]3CC[C@]21C is ___
0

Fill in: this test's call for COC(=O)c1ccccc1/C=C1\Cc2ccc3c(c2C1=O)CCCC3 is ___
0

Fill in: this test's call for CCN(CC)CCOc1ccc(N2C(=O)c3cccc4cc([N+](=O)[O-])cc(c34)C2=O)cc1 is ___
0

Fill in: this test's call for CC(C)OP(=O)(CN(C)/C(F)=N\C(F)(F)F)OC(C)C is ___
0

Fill in: this test's call for C1CN2N3CCCC23C1 (configuration not stated) is ___
0

Fill in: this test's call for CNc1ccc2c(c1)[C@@]1(C)c3ccccc3[C@@H](C2)N1C is ___
0

Fill in: this test's call for CC1OC(OCC2OC(Oc3c(-c4ccc(O)cc4)oc4cc(O)cc(O)c4c3=O)C(OC3OCC(O)(CO)C3O)C(O)C2O)C(O)C(O)C1O (configuration not stated) is ___
0

Fill in: this test's call for CSc1c(C#N)c(O)n(-c2ccc(C)cc2)c(=O)c1C(C)=O is ___
0

Fill in: this test's call for CC(=O)OCC(=O)[C@@]1(O)CC[C@H]2[C@@H]3C[C@H](C)C4=CC(=O)C=C[C@]4(C)[C@@]3(F)[C@@H](O)C[C@@]21C is ___
0

Fill in: this test's call for NCCNC(=O)c1cccc2cc3ccccc3nc12 is ___
0

Fill in: this test's call for O=C(CCc1cc(-c2ccccc2)nc(S)n1)N(Cc1ccccc1)Cc1ccccc1 is ___
0

Fill in: this test's call for CCOC(=O)C1S/C(=N\c2ccccc2)N=C1C (configuration not stated) is ___
0

Fill in: this test's call for O=C1NC2OCC(O)C(O1)C2O (configuration not stated) is ___
0

Fill in: this test's call for NC(=O)CN1CCN(c2nc(N3CCCC3)c3nc(Cl)c(NCc4ccccc4)nc3n2)CC1 is ___
0

Fill in: this test's call for COc1ccc(OC)c2c(Nc3ccc(S(=O)(=O)O)c4cc(S(=O)(=O)O)cc(S(=O)(=O)O)c34)cc(C)nc12 is ___
0

Fill in: this test's call for NC(=O)CCC(CCC(N)=O)(CCC(N)=O)[N+](=O)[O-] is ___
0

Fill in: this test's call for O=C(O)c1oc(C(=O)O)c(C(=O)O)c1C(=O)O is ___
0

Fill in: this test's call for CC(C)(C)OC(=O)NC(Cc1ccc(OCc2ccccc2)cc1)C(=O)NC(COCc1ccccc1)C(=O)Oc1c(Cl)c(Cl)c(Cl)c(Cl)c1Cl (configuration not stated) is ___
0

Fill in: this test's call for O=c1[nH]nc(-c2ccc([N+](=O)[O-])cc2)n1/N=C/c1ccc([N+](=O)[O-])cc1 is ___
0

Fill in: this test's call for CCOc1ccc(-c2oc(/C=N/NS(=O)(=O)c3ccc(C)cc3)c([N+](=O)[O-])c2-c2ccc(OCC)cc2)cc1 is ___
0

Fill in: this test's call for N#CC1(c2nc3ccccc3o2)C(=O)C(=O)N(C2C3CC4CC(C3)CC2C4)C(=O)C1=O (configuration not stated) is ___
0

Fill in: this test's call for S=C(S)N1CCN(c2ccccc2)CC1 is ___
0

Fill in: this test's call for CCCOP1(=O)C=C(O)C(Cl)=C(C)C1 (configuration not stated) is ___
0

Fill in: this test's call for COC(=O)c1ccc(NC(=O)c2cc(OC)c(OC)c(OC)c2)cc1 is ___
1

Fill in: this test's call for Cc1ccc2nc3c(=O)[nH]c(=O)nc-3n(C)c2c1C is ___
0

Fill in: this test's call for C[C@H]1CCC/C=C/[C@@H]2C[C@H](OC3OC(CO)C(O)C(O)C3O)C[C@H]2[C@H](O)/C=C/C(=O)O1 (some centres not stated) is ___
0

Fill in: this test's call for C(=C\Nc1ccc(Oc2ccccc2)cc1)/C=N/c1ccc(Oc2ccccc2)cc1 is ___
0

Fill in: this test's call for C=C(NC(=O)C(=C)NC(=O)c1ccc2c(n1)-c1coc(n1)C(=C)NC(=O)C(=C)NC(=O)c1nc(oc1C)C(=C)NC(=O)C(C(C)(C)O)NC(=O)C(=C)NC(=O)c1coc(n1)/C(=C/C)NC(=O)[C@H]([C@@H](C)O)NC(=O)c1csc-2n1)C(N)=O (some centres not stated) is ___
0

Fill in: this test's call for N#C/C(=C\c1ccc(O)c(O)c1)C(=O)NC1CCC(CC2CCC(NC(=O)/C(C#N)=C/c3ccc(O)c(O)c3)CC2)CC1 (configuration not stated) is ___
1
